- assay details: Microsomal stability assay, rat
- Assay type: in vitro ADME
- measurement context: metabolic stability, rat liver microsomes 0.5 mg/mL, substrate 3 uM
assay endpoint: log10(MS Rat THalf) (log10 of the value in min)
Values below are the log10 of the recorded MS Rat THalf, with min as the unit.

Worked examples, 5 molecules total:
molecule	readout value
O=C1c2cc(-c3ccc(C(F)(F)F)cc3)ccc2SCN1Cc1ncccc1F [Compound X-6]	1.66
Cc1cnc(Cn2nnc3ccc(-c4ccc(OC(F)(F)F)cc4)cc3c2=O)o1 [II-96]	1.53
Cn1ccnc1C(=O)N1CCc2ccc(-c3ccc(C(F)(F)F)cc3)cc2C1 [IX-80]	0.85
C[C@@H]1CC[C@@H](C)N1C(=O)N1CCc2ccc(-c3ccc(C(F)(F)F)cc3)cc2C1 [IX-105]	1.15
O=c1c2cc(-c3ccc(OC(F)(F)F)cc3)ccc2nnn1Cc1cc(-c2ccccn2)on1 [II-47]	1.85

Q: I am curious: what log10(MS Rat THalf) value has been reported for O=c1c2cc(-c3ccc(OC(F)(F)F)cc3)ccc2nnn1Cc1noc(-c2ccccn2)n1 [II-54] ?
A: 2.25

Q: I am curious: what log10(MS Rat THalf) value has been reported for Cc1cc(C)n(CCn2ncc3ccc(-c4ccc(OC(F)(F)F)cc4)cc3c2=O)n1 [III-24] ?
A: 0.95

Q: I am curious: what log10(MS Rat THalf) value has been reported for O=c1c2cc(-c3ccc(OC(F)(F)F)cc3)ccc2cnn1CCOc1nccc(C2CC2)n1 [III-29] ?
A: 1.41

###

Collected MS Dog THalf values appear next to each entry.
- assay details: Microsomal stability assay, dog
- Assay type: in vitro ADME
- measurement context: metabolic stability, dog liver microsomes 0.5 mg/mL, substrate 3 uM
# value in min; strip the unit string

Worked examples, 6 compounds total:
compound	assay endpoint	measurement units	readout value
O=C1c2cc(-c3ccc(C(F)(F)F)cc3)ccc2SCN1Cc1ncccn1 [Compound X-4]	MS Dog THalf	min	126
C[C@@H]1CC[C@@H](C)N1C(=O)N1CCc2ccc(-c3ccc(C(F)(F)F)cc3)cc2C1 [IX-105]	MS Dog THalf	min	74
O=C1c2cc(-c3ccc(C(F)(F)F)cc3)ccc2CCN1Cc1ncccn1 [IX-3]	MS Dog THalf	min	320
O=c1c2cc(-c3ccc(OC(F)(F)F)cc3)ccc2cnn1Cc1cccnc1C1CC1 [III-20]	MS Dog THalf	min	61
O=c1c2cc(-c3ccc(OC(F)(F)F)cc3)ccc2nnn1CC1(COc2ncccn2)CC1 [II-80]	MS Dog THalf	min	85
CCc1nccn1CC1(Cn2nnc3ccc(-c4ccc(OC(F)(F)F)cc4)cc3c2=O)CC1 [II-57]	MS Dog THalf	min	4

Q: I am curious: what MS Dog THalf value has been reported for O=c1c2cc(-c3ccc(OC(F)(F)F)cc3)ccc2nnn1CCc1ncccn1 [II-18] ?
A: 74

Q: I am curious: what MS Dog THalf value has been reported for Cc1noc(Cn2nnc3ccc(-c4ccc(Oc5ccccc5)cc4)cc3c2=O)n1 [II-7] ?
A: 4

Q: I am curious: what MS Dog THalf value has been reported for Cc1ccnn1CCn1ncc2ccc(-c3ccc(OC(F)(F)F)cc3)cc2c1=O [III-32] ?
A: 16

###

- assay target: wild-type human cardiac sodium channel, hNav1.5 (late INa) (Homo sapiens, UniProt Q14524)
- Sequence (Q14524 whole entry): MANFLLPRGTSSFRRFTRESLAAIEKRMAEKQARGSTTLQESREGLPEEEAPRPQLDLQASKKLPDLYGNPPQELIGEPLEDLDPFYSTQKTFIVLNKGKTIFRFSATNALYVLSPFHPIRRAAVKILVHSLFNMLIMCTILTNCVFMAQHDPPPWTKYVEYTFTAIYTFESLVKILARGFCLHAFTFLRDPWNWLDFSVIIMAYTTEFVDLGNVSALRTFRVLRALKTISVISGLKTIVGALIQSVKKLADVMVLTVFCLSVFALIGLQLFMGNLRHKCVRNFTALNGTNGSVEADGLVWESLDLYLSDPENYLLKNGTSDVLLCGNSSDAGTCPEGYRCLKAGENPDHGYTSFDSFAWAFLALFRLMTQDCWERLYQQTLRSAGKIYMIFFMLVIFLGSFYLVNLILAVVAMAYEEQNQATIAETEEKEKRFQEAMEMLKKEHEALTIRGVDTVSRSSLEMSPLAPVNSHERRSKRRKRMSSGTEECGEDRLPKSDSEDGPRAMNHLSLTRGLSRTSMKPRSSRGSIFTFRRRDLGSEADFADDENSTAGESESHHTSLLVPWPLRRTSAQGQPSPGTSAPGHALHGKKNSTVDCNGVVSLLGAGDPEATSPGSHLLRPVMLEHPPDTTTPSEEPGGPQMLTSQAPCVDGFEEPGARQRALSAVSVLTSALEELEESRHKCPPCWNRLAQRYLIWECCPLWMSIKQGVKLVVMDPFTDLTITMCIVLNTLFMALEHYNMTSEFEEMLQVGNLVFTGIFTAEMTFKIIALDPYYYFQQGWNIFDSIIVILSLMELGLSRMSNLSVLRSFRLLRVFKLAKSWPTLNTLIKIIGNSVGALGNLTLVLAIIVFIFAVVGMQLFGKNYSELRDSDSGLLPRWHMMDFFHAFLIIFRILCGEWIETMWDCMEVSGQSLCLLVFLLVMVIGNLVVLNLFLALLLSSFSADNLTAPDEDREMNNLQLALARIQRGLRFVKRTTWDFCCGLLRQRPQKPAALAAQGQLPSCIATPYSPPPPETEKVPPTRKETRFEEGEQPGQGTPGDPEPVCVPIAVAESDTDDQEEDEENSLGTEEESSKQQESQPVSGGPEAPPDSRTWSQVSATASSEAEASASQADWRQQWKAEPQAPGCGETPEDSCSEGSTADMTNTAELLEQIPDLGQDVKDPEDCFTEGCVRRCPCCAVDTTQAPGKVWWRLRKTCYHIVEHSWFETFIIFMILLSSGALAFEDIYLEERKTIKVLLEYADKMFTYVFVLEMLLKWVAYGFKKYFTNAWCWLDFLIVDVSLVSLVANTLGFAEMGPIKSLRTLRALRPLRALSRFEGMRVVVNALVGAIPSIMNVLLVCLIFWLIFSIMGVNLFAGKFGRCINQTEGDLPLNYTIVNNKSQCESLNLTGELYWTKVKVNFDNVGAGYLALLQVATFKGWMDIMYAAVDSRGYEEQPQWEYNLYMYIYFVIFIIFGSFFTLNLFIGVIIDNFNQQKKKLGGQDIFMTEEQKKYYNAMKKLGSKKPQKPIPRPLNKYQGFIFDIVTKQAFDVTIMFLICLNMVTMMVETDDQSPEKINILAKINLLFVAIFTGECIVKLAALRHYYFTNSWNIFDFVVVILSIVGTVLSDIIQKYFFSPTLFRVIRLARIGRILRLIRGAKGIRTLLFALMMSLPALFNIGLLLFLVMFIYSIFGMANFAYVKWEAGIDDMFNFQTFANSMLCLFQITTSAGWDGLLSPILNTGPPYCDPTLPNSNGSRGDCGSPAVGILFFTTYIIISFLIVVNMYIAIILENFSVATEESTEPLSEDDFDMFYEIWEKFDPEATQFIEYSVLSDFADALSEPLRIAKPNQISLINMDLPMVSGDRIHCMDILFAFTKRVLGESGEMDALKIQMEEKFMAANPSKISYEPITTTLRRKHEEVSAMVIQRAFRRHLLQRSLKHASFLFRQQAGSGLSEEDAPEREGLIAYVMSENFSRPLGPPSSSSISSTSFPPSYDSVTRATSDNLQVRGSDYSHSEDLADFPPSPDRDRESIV
- assay details: Late INa screening assay (QPatch whole cell patch clamp)
- Type: cell-based
- measurement context: % inhibition at 1 μM; read-out: NAv1.5*-LATE-
Binary call on inhibition at 1 µM: 1 from 30% upward, -1 beneath that.

compound	assigned category
O=C1c2cc(-c3ccc(C(F)(F)F)cc3)ccc2CCN1Cc1ncccn1	-1

Q: Is the recorded value of inhibition at 1 µM equal to or greater than 30% for this compound? `O=C(c1ncccn1)N1CCc2ccc(-c3ccc(C(F)(F)F)cc3)cc2C1`
A: 1

Q: Is the recorded value of inhibition at 1 µM equal to or greater than 30% for this compound? `O=C(c1ncc[nH]1)N1CCc2ccc(-c3ccc(C(F)(F)F)cc3)cc2C1`
A: 1

Q: Is the recorded value of inhibition at 1 µM equal to or greater than 30% for this compound? `O=c1c2cc(-c3ccc(OC(F)(F)F)cc3)ccc2nnn1C1CCNCC1`
A: 1

Q: Is the recorded value of inhibition at 1 µM equal to or greater than 30% for this compound? `O=c1c2cc(-c3ccc(OC(F)(F)F)cc3)ccc2nnn1CCOc1ncccn1`
A: 1

Q: Is the recorded value of inhibition at 1 µM equal to or greater than 30% for this compound? `O=c1c2cc(-c3ccc(OC(F)(F)F)cc3)ccc2nnn1CCc1ncccn1`
A: 1

Q: Is the recorded value of inhibition at 1 µM equal to or greater than 30% for this compound? `O=C(Cc1ccccn1)N1CCc2ccc(-c3ccc(C(F)(F)F)cc3)cc2C1`
A: 1

Q: Is the recorded value of inhibition at 1 µM equal to or greater than 30% for this compound? `O=c1c2cc(-c3ccc(OC(F)(F)F)cc3)ccc2nnn1CCOc1nccc(-c2noc(C3CC3)n2)n1`
A: 1

Q: Is the recorded value of inhibition at 1 µM equal to or greater than 30% for this compound? CC1Oc2ccc(-c3ccc(OC(F)(F)F)cc3)cc2C(=O)N1Cc1ncccn1 (stereo not drawn)
A: -1

###

Collected inhibition at 1 µM values appear next to each entry.
- assay target: wild-type human cardiac sodium channel, hNav1.5 (late INa) (Homo sapiens)
- assay details: Late INa screening assay (QPatch whole cell patch clamp)
- Type: cell-based
- measurement context: percent block of late INa, compound at 1 μM, 10 μM Tefluthrin, HEK293 hNav1.5; read-out: Late INa 1 μM
# value in %; strip the unit string

Q: I am curious: what inhibition at 1 µM value has been reported for `O=C(Cn1nnc2ccc(-c3ccc(OC(F)(F)F)cc3)cc2c1=O)N1CCN(c2ncccn2)CC1` ?
A: 25

Q: I am curious: what inhibition at 1 µM value has been reported for `Cc1cc(C)n(CC2(Cn3nnc4ccc(-c5ccc(OC(F)(F)F)cc5)cc4c3=O)CC2)n1` ?
A: 43

Q: I am curious: what inhibition at 1 µM value has been reported for `O=c1c2cc(-c3ccc(OC(F)(F)F)cc3)ccc2nnn1C1CCN(CC(F)(F)F)CC1` ?
A: 25

Q: I am curious: what inhibition at 1 µM value has been reported for `Cc1ncc(Cn2nnc3ccc(-c4ccc(OC(F)(F)F)cc4)cc3c2=O)o1` ?
A: 36

Q: I am curious: what inhibition at 1 µM value has been reported for `O=C1c2cc(-c3ccc(C(F)(F)F)cc3)ccc2SCN1Cc1ncccc1F` ?
A: 69

Q: I am curious: what inhibition at 1 µM value has been reported for `O=C(Cc1ccccn1)N1CCc2ccc(-c3ccc(C(F)(F)F)cc3)cc2C1` ?
A: 45

Q: I am curious: what inhibition at 1 µM value has been reported for `O=C1c2cc(-c3ccc(C(F)(F)F)cc3)ccc2SCN1Cc1ccccn1` ?
A: 67

Q: I am curious: what inhibition at 1 µM value has been reported for O=C(N1CCc2ccc(-c3ccc(C(F)(F)F)cc3)cc2C1)N1CCC(O)C1 (stereo not shown) ?
A: 16

Q: I am curious: what inhibition at 1 µM value has been reported for `O=c1c2cc(-c3ccc(OC(F)(F)F)cc3)ccc2nnn1Cn1nnnc1-c1ccccc1` ?
A: 70

Q: I am curious: what inhibition at 1 µM value has been reported for `Cc1nonc1Cn1cnc2ccc(-c3ccc(OC(F)(F)F)cc3)cc2c1=O` ?
A: 37

Q: I am curious: what inhibition at 1 µM value has been reported for `COc1cc(OC)nc(Cn2ncc3ccc(-c4ccc(OC(F)(F)F)cc4)cc3c2=O)n1` ?
A: 56

Q: I am curious: what inhibition at 1 µM value has been reported for `O=c1c2cc(-c3ccc(OC(F)(F)F)cc3)ccc2cnn1CCOc1ccccn1` ?
A: 51

Q: I am curious: what inhibition at 1 µM value has been reported for `O=C(c1ncccc1F)N1CCc2ccc(-c3ccc(C(F)(F)F)cc3)cc2C1` ?
A: 57

Q: I am curious: what inhibition at 1 µM value has been reported for `O=c1c2cc(-c3ccc(OC(F)(F)F)cc3)ccc2nnn1Cc1nnc(C2CC2)s1` ?
A: 39

Q: I am curious: what inhibition at 1 µM value has been reported for `O=C(c1ccccn1)N1CCc2ccc(-c3ccc(C(F)(F)F)cc3)cc2C1` ?
A: 62

Q: I am curious: what inhibition at 1 µM value has been reported for `O=C(c1ncccn1)N1CCc2ccc(-c3ccc(Cl)cc3F)cc2C1` ?
A: 27

Q: I am curious: what inhibition at 1 µM value has been reported for `CC(C)(COc1ncccn1)Cn1nnc2ccc(-c3ccc(OC(F)(F)F)cc3)cc2c1=O` ?
A: 34

Q: I am curious: what inhibition at 1 µM value has been reported for `Cc1ccnn1CCn1ncc2ccc(-c3ccc(OC(F)(F)F)cc3)cc2c1=O` ?
A: 53

Q: I am curious: what inhibition at 1 µM value has been reported for `Cc1cc(C(=O)N2CCc3ccc(-c4ccc(C(F)(F)F)cc4)cc3C2)nc(N)n1` ?
A: 16
